tested on: Plasmodium falciparum; test: Antiplasmodial activity against chloroquine-resistant Plasmodium falciparum FcB1/Columbia infected in human erythrocytes assessed as parasite growth inhibition at 50 ug/ml after 24 hrs by [3H]-hypoxanthine incorporation assay relative to control; format: functional; conditions: read-out: GI

{"columns": ["smiles input", "assay target", "inhibition of growth at 50 µg/mL / %"],
 "data": [
  ["COc1ccc(C(=O)C2=C(O)[C@]3(CC=C(C)C)C[C@H](CC=C(C)C)[C@@](C)(CCC=C(C)C)[C@](CC=C(C)C)(C2=O)C3=O)cc1O", "Plasmodium falciparum", 98.9],
  ["CCCOc1ccc(C(=O)C2=C(O)[C@]3(CC=C(C)C)C[C@H](CC=C(C)C)[C@@](C)(CCC=C(C)C)[C@](CC=C(C)C)(C2=O)C3=O)cc1O", "Plasmodium falciparum", 99.6],
  ["C#CCOc1ccc(C(=O)C2=C(O)[C@]3(CC=C(C)C)C[C@H](CC=C(C)C)[C@@](C)(CCC=C(C)C)[C@](CC=C(C)C)(C2=O)C3=O)cc1O", "Plasmodium falciparum", 99.5]
]}

====

experiment: Safety index, ratio of IC50 for african green monkey Vero cells to IC50 for bloodstream stage of Trypanosoma brucei brucei 93; assay type: toxicity, cell-based; conditions: read-out: Ratio IC50
quantity measured: selectivity ratio

{"columns": ["smiles input", "val"],
 "data": [
  ["CC(C)=CCC[C@]1(C)[C@@H](CC=C(C)C)C[C@]2(CC=C(C)C)C(=O)[C@@]1(CC=C(C)C)C(=O)C(C(=O)c1ccc(OCc3ccccc3)c(OCc3ccccc3)c1)=C2O", 10.1],
  ["CC(=O)Oc1ccc(C(=O)C2=C(O)[C@]3(CC=C(C)C)C[C@H](CC=C(C)C)[C@@](C)(CCC=C(C)C)[C@](CC=C(C)C)(C2=O)C3=O)cc1OC(C)=O", 1.3],
  ["COc1ccc(C(=O)C2=C(O)[C@]3(CC=C(C)C)C[C@H](CC=C(C)C)[C@@](C)(CCC=C(C)C)[C@](CC=C(C)C)(C2=O)C3=O)cc1O", 8.1],
  ["CC(=O)Oc1cc(C(=O)C2=C(O)[C@]3(CC=C(C)C)C[C@H](CC=C(C)C)[C@@](C)(CCC=C(C)C)[C@](CC=C(C)C)(C2=O)C3=O)ccc1O", 2.3],
  ["CCCC(=O)Oc1ccc(C(=O)C2=C(O)[C@]3(CC=C(C)C)C[C@H](CC=C(C)C)[C@@](C)(CCC=C(C)C)[C@](CC=C(C)C)(C2=O)C3=O)cc1OC(=O)CCC", 3],
  ["CC(C)=CCC[C@]1(C)[C@@H](CC=C(C)C)C[C@]2(CC=C(C)C)C(=O)[C@@]1(CC=C(C)C)C(=O)C(C(=O)c1ccc(OCCC3OCCO3)c(OCCC3OCCO3)c1)=C2O", 22.8],
  ["CC(C)=CCC[C@]1(C)[C@@H](CC=C(C)C)C[C@]2(CC=C(C)C)C(=O)[C@@]1(CC=C(C)C)C(=O)C(C(=O)c1ccc(OC(=O)C(C)(C)C)c(OC(=O)C(C)(C)C)c1)=C2O", 11.5]
]}

====

test system: Plasmodium falciparum; experiment: Antiplasmodial activity against chloroquine-resistant Plasmodium falciparum FcB1/Columbia infected in human erythrocytes assessed as parasite growth inhibition at 50 ug/ml after 24 hrs by [3H]-hypoxanthine incorporation assay relative to control; assay type: functional; conditions: read-out: GI
Reported inhibition of growth at 50 µg/mL values follow for various molecules

{"columns": ["smiles input", "assay target", "u", "inhibition of growth at 50 µg/mL"],
 "data": [
  ["CC(=O)Oc1ccc(C(=O)C2=C(O)[C@]3(CC=C(C)C)C[C@H](CC=C(C)C)[C@@](C)(CCC=C(C)C)[C@](CC=C(C)C)(C2=O)C3=O)cc1OC(C)=O", "Plasmodium falciparum", "%", 99.7],
  ["CC(C)=CCC[C@]1(C)[C@@H](CC=C(C)C)C[C@]2(CC=C(C)C)C(=O)[C@@]1(CC=C(C)C)C(=O)C(C(=O)c1ccc(OCc3ccccc3)c(O)c1)=C2O", "Plasmodium falciparum", "%", 99.1],
  ["CC(C)=CCC[C@]1(C)[C@@H](CC=C(C)C)C[C@]2(CC=C(C)C)C(=O)[C@@]1(CC=C(C)C)C(=O)C(C(=O)c1ccc(OC(=O)C(C)(C)C)c(OC(=O)C(C)(C)C)c1)=C2O", "Plasmodium falciparum", "%", 0.5],
  ["CC(=O)Oc1cc(C(=O)C2=C(O)[C@]3(CC=C(C)C)C[C@H](CC=C(C)C)[C@@](C)(CCC=C(C)C)[C@](CC=C(C)C)(C2=O)C3=O)ccc1O", "Plasmodium falciparum", "%", 99.1],
  ["CC(C)=CCC[C@]1(C)[C@@H](CC=C(C)C)C[C@]2(CC=C(C)C)C(=O)[C@@]1(CC=C(C)C)C(=O)C(C(=O)c1ccc(OCCC3OCCO3)c(O)c1)=C2O", "Plasmodium falciparum", "%", 99.6]
]}

Where these numbers come from: ChEMBL document CHEMBL2401618
